Conditions: 298.15 K; 101.33 kPa; Liquid; Vibrating tube method
value.kind: mass density (kg/m3)

Give recorded mass density. CCCCCCCCCC
726.15

Give recorded mass density. CCCC[N+](C)(CCCC)CCCC.O=S(=O)([N-]S(=O)(=O)C(F)(F)F)C(F)(F)F [tributylmethylammonium bis((trifluoromethyl)sulfonyl)imide]
1261.65

Give recorded mass density. c1ccccc1
873.71

Give recorded mass density. CCCCCCCC
698.86
